assayed_target: PxRDL1 (Plutella xylostella)
Sequence (C0L7I5 26-485): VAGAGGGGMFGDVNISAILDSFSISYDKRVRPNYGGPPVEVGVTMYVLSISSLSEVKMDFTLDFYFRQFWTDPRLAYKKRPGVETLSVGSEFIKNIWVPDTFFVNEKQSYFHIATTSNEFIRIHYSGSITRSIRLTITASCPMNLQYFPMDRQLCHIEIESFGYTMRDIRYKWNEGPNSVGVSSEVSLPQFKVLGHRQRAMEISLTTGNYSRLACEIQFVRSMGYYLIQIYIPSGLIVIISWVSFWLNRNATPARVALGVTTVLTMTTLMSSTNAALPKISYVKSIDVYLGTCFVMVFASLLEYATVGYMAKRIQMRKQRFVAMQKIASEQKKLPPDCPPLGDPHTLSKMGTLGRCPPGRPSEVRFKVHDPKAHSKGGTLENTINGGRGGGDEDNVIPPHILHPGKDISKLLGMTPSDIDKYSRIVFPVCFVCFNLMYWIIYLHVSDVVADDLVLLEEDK
test_summary: cell-based
reported_property: EC50 (µM)
Lab book: enter the figure in µM, no units written.

State recorded EC50 with PxRDL1 (Plutella xylostella), entry NCCCC(=O)O [GABA] , no comment.
20.8
